Molecular target: tyrosinase (Agaricus bisporus)
Construct: purchased Sigma-Aldrich T3824
Sequence (C7FF04 1-392 limits assumed): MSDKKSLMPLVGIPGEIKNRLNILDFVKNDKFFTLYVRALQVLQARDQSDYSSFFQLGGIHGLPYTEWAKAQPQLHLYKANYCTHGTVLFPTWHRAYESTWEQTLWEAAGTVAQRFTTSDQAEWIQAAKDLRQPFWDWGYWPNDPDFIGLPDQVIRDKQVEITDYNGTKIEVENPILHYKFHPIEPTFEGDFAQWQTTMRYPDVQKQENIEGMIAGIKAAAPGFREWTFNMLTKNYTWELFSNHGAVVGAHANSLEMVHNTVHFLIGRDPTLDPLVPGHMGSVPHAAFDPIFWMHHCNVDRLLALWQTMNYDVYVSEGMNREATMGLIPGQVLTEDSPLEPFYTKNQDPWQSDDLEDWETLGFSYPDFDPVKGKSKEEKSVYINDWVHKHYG
Test: Slow-binding inhibition analysis (progress curves)
Assay type: biochemical, mushroom
Settings: apparent Ki from slow-binding analysis; read-out: kapp i
Give Ki for every item shown.
One number for each entry, in µM.

compound: Oc1cc(O)cc(Oc2c(O)cc(O)c3c2Oc2c(O)cc(O)c(-c4c(O)cc(O)c5c4Oc4c(O)cc(Oc6c(O)cc(O)cc6O)c(Oc6cc(O)cc(O)c6)c4O5)c2O3)c1 [Compound 5]
system: tyrosinase (Agaricus bisporus)
reported: 4.4

q: Requested field: Ki. Item: Oc1cc(O)cc(Oc2c(Oc3c(O)cc(O)cc3O)cc(O)c3c2Oc2c(O)cc(O)cc2O3)c1 [Compound 3, 2-phloroeckol]
a: 6.5

* * *

Biological target: tyrosinase (Agaricus bisporus)
Construct: purchased Sigma-Aldrich T3824
Test: Tyrosinase assay (L-tyrosine substrate, product detected at 475 nm)
Format: biochemical, mushroom
Conditions: compound at 100 μM; triplicate; read-out: Inhibitory activity on tyrosinase at 100 μM (%)
Each entry gets 0 (no) if its inhibition at 100 µM stays under 60%, and 1 (yes) if its inhibition at 100 µM is 60% or above.

compound: Oc1cc(O)cc(Oc2c(O)cc(O)c3c2Oc2c(O)cc(O)c(-c4c(O)cc(O)c5c4Oc4c(O)cc(Oc6c(O)cc(O)cc6O)c(Oc6cc(O)cc(O)c6)c4O5)c2O3)c1 [Compound 5]
system: tyrosinase (Agaricus bisporus)
classification: 1 (yes)

compound: Oc1cc(O)cc(Oc2c(O)cc(O)c3c2Oc2c(O)cc4oc5c(Oc6cc(O)cc(O)c6)c(O)cc(O)c5c4c2O3)c1 [Compound 4, phlorofucofuroeckol A]
system: tyrosinase (Agaricus bisporus)
classification: 0 (no)

q: Exam item: decide whether the reported inhibition at 100 µM for Oc1cc(O)cc(Oc2c(Oc3c(O)cc(O)cc3O)cc(O)c3c2Oc2c(O)cc(O)cc2O3)c1 [Compound 3, 2-phloroeckol] is at least 60%.
a: 1 (yes)

q: Exam item: decide whether the reported inhibition at 100 µM for Oc1cc(O)cc(Oc2c(O)cc(O)c3c2Oc2c(cc(O)c(-c4c(O)cc(O)c5c4Oc4c(O)cc(O)c(Oc6cc(O)cc(O)c6)c4O5)c2O)O3)c1 [Compound 6, 6,8′-bieckol] is at least 60%.
a: 0 (no)

q: Exam item: decide whether the reported inhibition at 100 µM for Oc1cc(O)cc(Oc2c(O)cc(O)c3c2Oc2c(O)cc(O)cc2O3)c1 [Compound 2, eckol] is at least 60%.
a: 1 (yes)
